Listed here: items and their measured MIC.
# Tested on: Acinetobacter baumannii
# test.protocol: Antibacterial activity against Acinetobacter baumannii assessed as inhibition of bacterial growth by two fold serial dilution method
# Type: functional
Write it as a number; the unit µg/mL goes unstated.

> print(dat)
                                   compound  measurement.name  recorded.measurement
1  CCCCc1nc(Cl)c(C2NC(=O)NC(C)=C2C(=O)OCC)n1S(=O)(=O)c1ccc(F)cc1 (centres undefined)               MIC                    64
2  CCCCc1nc(Cl)c(C2NC(=O)NC(CN(c3nnc(C)s3)S(=O)(=O)c3ccc(N)cc3)=C2C(=O)OCC)[nH]1 (centres undefined)               MIC                   128
3  CCCCc1nc(Cl)c(C2NC(=O)NC(C)=C2C(=O)OCC)n1S(=O)(=O)c1ccccc1 (centres undefined)               MIC                    64
4  CCCCc1nc(Cl)c(C2NC(=O)NC(C)=C2C(=O)OCC)n1CCC (centres undefined)               MIC                    64

Shifting focus to the compound that follows.
Incoming: What measured MIC goes with CCCCc1nc(Cl)c(C2NC(=O)NC(CNS(=O)(=O)c3ccc(N)cc3)=C2C(=O)OCC)[nH]1 (centres undefined) ?
Outgoing: 128

====

Here, each record is paired with measured MIC data.
# Tested on: Staphylococcus aureus
# test.protocol: Antibacterial activity against Staphylococcus aureus assessed as inhibition of bacterial growth by two fold serial dilution method
# Format: functional
Field: numeric (µg/mL). Do not append units.

Example compounds with recorded MIC:
> print(dat)
                                   compound  measurement.name  recorded.measurement
1  C=CCn1c(CCCC)nc(Cl)c1C1NC(=O)NC(C)=C1C(=O)OCC (stereo not given)               MIC                    32
2  CCCCc1nc(Cl)c(C2NC(=O)NC(C)=C2C(=O)OCC)n1S(=O)(=O)c1ccc(C(F)(F)F)cc1 (stereo not given)               MIC                    64
3  CCCCc1nc(Cl)c(C2NC(=O)NC(CN(c3nnc(C)s3)S(=O)(=O)c3ccc(N)cc3)=C2C(=O)OCC)[nH]1 (stereo not given)               MIC                   128
4  CCCCc1nc(Cl)c(C2NC(=O)NC(C)=C2C(=O)OCC)n1CC(=O)N1CCOCC1 (stereo not given)               MIC                    64
5  CCCCc1nc(Cl)c(C2NC(=O)NC(C)=C2C(=O)OCC)n1CCF (stereo not given)               MIC                    32
6  CCCCc1nc(Cl)c(C2NC(=O)NC(C)=C2C(=O)OCC)n1Cc1ccc(Cl)c(Cl)c1 (stereo not given)               MIC                    32
7  C#CCn1c(CCCC)nc(Cl)c1C1NC(=O)NC(C)=C1C(=O)OCC (stereo not given)               MIC                    64
8  CCCCc1nc(Cl)c(C2NC(=O)NC(C)=C2C(=O)OCC)n1C (stereo not given)               MIC                    32

Incoming: I am curious: what MIC value has been reported for CCCCc1nc(Cl)c(C2NC(=O)NC(C)=C2C(=O)OCC)n1CCC (stereo not given) ?
Outgoing: 16

Incoming: // same read-out, input: CCCCc1nc(Cl)c(C2NC(=O)NC(C)=C2C(=O)OCC)n1S(=O)(=O)c1ccccc1 (stereo not given)
Outgoing: 64
